# test_method_notes: in vivo
# condition_info: nude, mouse, iv, 12 mg/kg, Brain conc
property_measured: concentration at 2 h

Reported concentration at 2 h for C/C(=C\c1csc(C)n1)[C@@H]1C[C@@H]2O[C@]2(C)CCC[C@H](C)[C@H](O)[C@@H](C)C(=O)C(C)(C)[C@@H](O)CC(=O)N1 [Ixabepilone] was 360 nM

====

# test_method_notes: in vivo
# condition_info: nude, mouse, iv, 12 mg/kg, Plasma conc
property_measured: concentration at 6 h (nM)
Report as a plain number; the unit nM is understood.

Reported concentration at 6 h ( C/C(=C\c1csc(C)n1)[C@@H]1C[C@@H]2O[C@]2(C)CCC[C@H](C)[C@H](O)[C@@H](C)C(=O)C(C)(C)[C@@H](O)CC(=O)N1 [Ixabepilone] ) = 53

====

# test_method_notes: Plasma, brain and liver levels after oral gavage in C57BL/6 mice
# Assay type: in vivo, mouse
# condition_info: mouse, plasma, 10 mg/kg; C57BL/6 mice, oral gavage 10 mpk, 3 hr; read-out: Plasma conc
property_measured: concentration at 3 h
Please answer in the form of a number followed by its unit of measurement.

Lab note: C/C1=C/C[C@@H](/C(C)=C/c2csc(C)n2)OC(=O)C[C@H](O)C(C)(C)C(=O)[C@H](C)[C@@H](O)[C@@H](C)CCC1 gave concentration at 3 h of 3.9 nM

====

# test_method_notes: Plasma, brain and liver levels after oral gavage in C57BL/6 mice
# Format: in vivo, mouse
# condition_info: mouse, brain, 10 mg/kg; C57BL/6 mice, oral gavage 10 mpk, 96 hr; read-out: Brain conc
property_measured: concentration at 96 h (nM)
Supply the numeric figure in nM, leaving out any unit text.

// sample C/C1=C/C[C@@H](/C(C)=C/c2csc(C)n2)OC(=O)C[C@H](O)C(C)(C)C(=O)[C@H](C)[C@@H](O)[C@@H](C)CCC1 , its concentration at 96 h was 3

====

# test_method_notes: in vivo
# condition_info: nude, mouse, iv, 4 mg/kg, Brain-to-plasma Ratio
property_measured: Kp at 1 h
Output: the number by itself.

Reported Kp at 1 h for CC(=O)O[C@H]1C(=O)[C@@]2(C)[C@H]([C@H](OC(=O)c3ccccc3)[C@]3(O)C[C@H](OC(=O)[C@H](O)[C@@H](NC(=O)c4ccccc4)c4ccccc4)C(C)=C1C3(C)C)[C@]1(OC(C)=O)CO[C@@H]1C[C@@H]2O was 0.1

====

# test_method_notes: Plasma, brain and liver levels of epothilone D after bolus IV in triple transgenic mice
# Assay type: in vivo, mouse
# condition_info: triple transgenic (Oddo et al. 2003), mouse, brain, 5 mg/kg, bolus IV 5 mpk, 24 hr, read-out: Brain conc
# Text: To calculate an accurate brain half-life for a long half-life compound, measurements need to be taken for several half lives after a single dose.
property_measured: concentration at 24 h
Write the figure, then the unit, nothing else.

// C/C1=C/C[C@@H](/C(C)=C/c2csc(C)n2)OC(=O)C[C@H](O)C(C)(C)C(=O)[C@H](C)[C@@H](O)[C@@H](C)CCC1 : concentration at 24 h value = 82.7 nM

====

# test_method_notes: Plasma, brain and liver levels of epothilone D after bolus IV in triple transgenic mice
# Type: in vivo, mouse
# condition_info: triple transgenic (Oddo et al. 2003), mouse, plasma, 5 mg/kg, bolus IV 5 mpk, 0.17 hr, read-out: Plasma conc
property_measured: concentration at 0.17 h (nM)
Please reply with the bare figure in nM and do not write the unit itself.

The recorded concentration at 0.17 h for C/C1=C/C[C@@H](/C(C)=C/c2csc(C)n2)OC(=O)C[C@H](O)C(C)(C)C(=O)[C@H](C)[C@@H](O)[C@@H](C)CCC1 [Epothilone D, epothilone D] is 2000

Sourced from patent US8673949B2
